# Tested on: Vero E6 infected with SARS-CoV-2
# Test Name: inhibition of SARS-CoV-2 cytopathic effect; higher = more antiviral protection, active = above 15
# Conditions Used: 8.33 nM; 48 h
For each record, write down the corresponding inhibition of SARS-CoV-2 cytopathic effect.
Hi! Could you send only the number? It should be in %, unit omitted.

Recorded inhibition of SARS-CoV-2 cytopathic effect of CCOC(=O)C1=C(C)NC(=S)NC1c1cccc(O)c1 (centres undefined) [monastrol] , please. -0.07

Quick one: inhibition of SARS-CoV-2 cytopathic effect of CC(O)(C(=O)Nc1ccc(S(=O)(=O)c2ccccc2)cc1)C(F)(F)F (centres undefined) ? 1.61

Recorded inhibition of SARS-CoV-2 cytopathic effect for CC(=O)OCC(=O)[C@@]1(O)CC[C@H]2[C@@H]3CCC4=CC(=O)C=C[C@]4(C)[C@@]3(F)[C@@H](O)C[C@@]21C [isoflupredone-acetate] , please? 2.61

Find the recorded inhibition of SARS-CoV-2 cytopathic effect belonging to CCOC(=O)[C@@H](C)Oc1ccc(Oc2nc3ccc(Cl)cc3o2)cc1 [fenoxaprop-p-ethyl] and report it. -0.32
